System: biotinyl-Trp-oxazolone
Assay: self-aminoacylation, catalytic enhancement (BWO) (fold over background); higher = more active; k-Seq, kA / k0A0; sequences stand for … in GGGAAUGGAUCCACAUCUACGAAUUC…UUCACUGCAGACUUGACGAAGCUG
Variants at the floor of the assay were thinned out.
Readout Name: self-aminoacylation
Quick one: just the number, no unit, thanks!

Solved entries (count: 3):
item_sequence="UUCACCCUGGUCAUCGAGUGA [Fam2.1 aminoacylation ribozyme variant]" readout_name=self-aminoacylation reported=12.7
item_sequence="AUUGCCCUGGUCAUCGACUGA [Fam2.1 aminoacylation ribozyme variant]" readout_name=self-aminoacylation reported=1.35
item_sequence="CUACUUCAAACCAUCGGUGUG [Fam1A.1 aminoacylation ribozyme variant]" readout_name=self-aminoacylation reported=0.938

Entry AUCACCCUGGUCAUCGAGGGA [Fam2.1 aminoacylation ribozyme variant] ; self-aminoacylation = 2.94

###

Tested on: biotinyl-Trp-oxazolone
Assay: self-aminoacylation, catalytic enhancement (BWO) (fold over background); higher = more active; k-Seq, kA / k0A0; sequences stand for … in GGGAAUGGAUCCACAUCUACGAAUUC…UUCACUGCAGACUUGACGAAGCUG
Variants at the floor of the assay were thinned out.
Readout Name: self-aminoacylation
Quick one: just the number, no unit, thanks!

Solved entries (count: 3):
item_sequence="CUACUUCAAUCAAUCAGUCUG [Fam1A.1 aminoacylation ribozyme variant]" readout_name=self-aminoacylation reported=6.4
item_sequence="AUUCACCUAGGUUAUCGCGUG [Fam2.2 aminoacylation ribozyme variant]" readout_name=self-aminoacylation reported=3.11
item_sequence="AUUCGCCUAGGUCAGCGGGUG [Fam2.2 aminoacylation ribozyme variant]" readout_name=self-aminoacylation reported=5.11

Entry AAUCACCUAGGACAUCGGGUG [Fam2.2 aminoacylation ribozyme variant] ; self-aminoacylation = 5.94

Entry AUUACCCUGGUCAUGGAGUGU [Fam2.1 aminoacylation ribozyme variant] ; self-aminoacylation = 2.57

Entry ACUCUCCUAGGUCAUCGGGUG [Fam2.2 aminoacylation ribozyme variant] ; self-aminoacylation = 8.31

Entry CCGCACUUAAAGCAAUCGGUC [Fam1B.1 aminoacylation ribozyme variant] ; self-aminoacylation = 1.15

Entry CCACUCUUCAAGCAAUCGGUU [Fam1B.1 aminoacylation ribozyme variant] ; self-aminoacylation = 2.27

Entry AUUAUCUUGGUCAUCGAGUGA [Fam2.1 aminoacylation ribozyme variant] ; self-aminoacylation = 6.57

###

Test system: biotinyl-Trp-oxazolone
Assay: self-aminoacylation, catalytic enhancement (BWO) (fold over background); higher = more active; k-Seq, kA / k0A0; sequences stand for … in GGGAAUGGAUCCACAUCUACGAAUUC…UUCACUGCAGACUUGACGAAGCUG
Variants at the floor of the assay were thinned out.
Readout Name: self-aminoacylation
Quick one: just the number, no unit, thanks!

Solved entries (count: 3):
item_sequence="AUUCACCUAGGUCAUAAGGUG [Fam2.2 aminoacylation ribozyme variant]" reported=2.59
item_sequence="GCACACUUCAAGCAAUCGGUU [Fam1B.1 aminoacylation ribozyme variant]" reported=6.83
item_sequence="CCAGAGUUCAAGCAAUCGGUC [Fam1B.1 aminoacylation ribozyme variant]" reported=1.72

# next sequence below
Entry AUCACGCUGGUCAUCGAGUGA [Fam2.1 aminoacylation ribozyme variant] ; self-aminoacylation = 6.96

###

Tested on: biotinyl-Ile-oxazolone
Assay: self-aminoacylation, catalytic enhancement (BIO) (fold over background); higher = more active; k-Seq, kA / k0A0; sequences stand for … in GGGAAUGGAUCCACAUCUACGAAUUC…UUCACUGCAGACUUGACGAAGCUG
Variants at the floor of the assay were thinned out.
Recorded self-aminoacylation values for a group of sequences are listed next.
Quick one: just the number, no unit, thanks!

Solved entries (count: 8):
item_sequence="GAGUUUGCUAAUAGUCGCGAG [Fam3.1 aminoacylation ribozyme variant]" reported=1.55
item_sequence="AUUACACUGGUCAUCGAGUCA [Fam2.1 aminoacylation ribozyme variant]" reported=0.877
item_sequence="CCACACUUCAAGUAAUCGUUC [Fam1B.1 aminoacylation ribozyme variant]" reported=0.628
item_sequence="CUUCACCUAGGUCAUGGGGUG [Fam2.2 aminoacylation ribozyme variant]" reported=2.5
item_sequence="ACUCACCUAGGUCAUCGAGUG [Fam2.2 aminoacylation ribozyme variant]" reported=2.85
item_sequence="CCACACUUCCAGUAAUCGGUC [Fam1B.1 aminoacylation ribozyme variant]" reported=1.02
item_sequence="AUUAUCCUGGACAUCGAGUGA [Fam2.1 aminoacylation ribozyme variant]" reported=2.88
item_sequence="CUAAUUCUAACAAUCGGUCUG [Fam1A.1 aminoacylation ribozyme variant]" reported=0.751

Entry AUUCACCCAGGUUAUCGGGUG [Fam2.2 aminoacylation ribozyme variant] ; self-aminoacylation = 2.77

Entry AAUACCCUGGUCAUCGAAUGA [Fam2.1 aminoacylation ribozyme variant] ; self-aminoacylation = 0.855

Entry CUACGUCAAACAGUCGGUCUG [Fam1A.1 aminoacylation ribozyme variant] ; self-aminoacylation = 1.14

Entry AUUACCCUGAUCAUCGAGAGA [Fam2.1 aminoacylation ribozyme variant] ; self-aminoacylation = 1.02

Entry AACUUUGCUAAUGGUCGCAAG [Fam3.1 aminoacylation ribozyme variant] ; self-aminoacylation = 2.47

Entry AUUCACCUGGGUCACCGGGUG [Fam2.2 aminoacylation ribozyme variant] ; self-aminoacylation = 3.43

Entry AUUACUCUGGUCAUCGGGUGA [Fam2.1 aminoacylation ribozyme variant] ; self-aminoacylation = 5.43

Entry AACUUUGCUAAGAGUCGCAAG [Fam3.1 aminoacylation ribozyme variant] ; self-aminoacylation = 2.78

Entry CUACUUCAAACCAUCGGUGUG [Fam1A.1 aminoacylation ribozyme variant] ; self-aminoacylation = 1.08

###

Tested on: biotinyl-Ile-oxazolone
Assay: self-aminoacylation, catalytic enhancement (BIO) (fold over background); higher = more active; k-Seq, kA / k0A0; sequences stand for … in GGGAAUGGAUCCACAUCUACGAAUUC…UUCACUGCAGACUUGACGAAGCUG
Fewer inactive variants are shown than the library holds.
Binned self-aminoacylation; ranges: A: < 1; B: ≥ 1 and < 3; C: ≥ 3

Solved entries (count: 2):
item_sequence="AUUCACCUAGGUCACCGAGUG [Fam2.2 aminoacylation ribozyme variant]" label_value=B
item_sequence="AUUCGCCUAGGUCAGCGGGUG [Fam2.2 aminoacylation ribozyme variant]" label_value=C

Next:
# bin label for CUAUUUCAAACAAUAGGUCUG [Fam1A.1 aminoacylation ribozyme variant]
B

###

System: biotinyl-Met-oxazolone
Assay: self-aminoacylation, catalytic enhancement (BMO) (fold over background); higher = more active; k-Seq, kA / k0A0; sequences stand for … in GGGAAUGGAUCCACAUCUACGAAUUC…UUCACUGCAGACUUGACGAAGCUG
This sample holds only a part of the variants without activity.
Would you mind labelling by self-aminoacylation? At or over 2 is 1.0, under is 0.0.

Solved entries (count: 6):
item_sequence="AUUUCCCUGGUCACCGAGUGA [Fam2.1 aminoacylation ribozyme variant]" label_value=1.0
item_sequence="AGGAUUGCUAAUAGUCGCAAG [Fam3.1 aminoacylation ribozyme variant]" label_value=0.0
item_sequence="AUUACCCUGGCCAUCGAGUUA [Fam2.1 aminoacylation ribozyme variant]" label_value=0.0
item_sequence="CUACUUCGAACGAUCGGUCUG [Fam1A.1 aminoacylation ribozyme variant]" label_value=0.0
item_sequence="AGUCACCUAGGUCAUCUGGUG [Fam2.2 aminoacylation ribozyme variant]" label_value=1.0
item_sequence="AAGCUCGCUAAUAGUCGCAAG [Fam3.1 aminoacylation ribozyme variant]" label_value=0.0

Exam item: decide whether the reported self-aminoacylation for CUACUUCAAAAAAUCCGUCUG [Fam1A.1 aminoacylation ribozyme variant] is at least 2.
0.0

Exam item: decide whether the reported self-aminoacylation for AUUAUUCUGGUCAUCGAGUGA [Fam2.1 aminoacylation ribozyme variant] is at least 2.
1.0

Exam item: decide whether the reported self-aminoacylation for AUUACCAGGGUCAUCGAGUGA [Fam2.1 aminoacylation ribozyme variant] is at least 2.
1.0

Exam item: decide whether the reported self-aminoacylation for AUUCACCUAGGUCAGCGUGUG [Fam2.2 aminoacylation ribozyme variant] is at least 2.
1.0

Exam item: decide whether the reported self-aminoacylation for AUUACCCUGGCCAUCAAGUGA [Fam2.1 aminoacylation ribozyme variant] is at least 2.
0.0

Exam item: decide whether the reported self-aminoacylation for AUUCCCCUGGUCAUCGGGUGA [Fam2.1 aminoacylation ribozyme variant] is at least 2.
1.0

###

Test system: biotinyl-Phe-oxazolone
Assay: self-aminoacylation, catalytic enhancement (BFO) (fold over background); higher = more active; k-Seq, kA / k0A0; sequences stand for … in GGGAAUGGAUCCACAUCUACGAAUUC…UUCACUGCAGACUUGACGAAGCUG
Variants at the floor of the assay were thinned out.
Binned self-aminoacylation; ranges: group A (below 1), group B (1 to below 30), group C (30 or more)

Solved entries (count: 2):
item_sequence="CUACUUCAAACAAUCGGUCGG [Fam1A.1 aminoacylation ribozyme variant]" assay_target=biotinyl-Phe-oxazolone label_value="group B"
item_sequence="ACAUACUUCAAGCAAUCGGUC [Fam1B.1 aminoacylation ribozyme variant]" assay_target=biotinyl-Phe-oxazolone label_value="group B"

# bin label for AUUACUCUGGUCUUCGAGUGA [Fam2.1 aminoacylation ribozyme variant]
group B

# bin label for CUUACCCUGGUCAUCGAGUGU [Fam2.1 aminoacylation ribozyme variant]
group C

# bin label for AUUCCCCUGGUCAUCGGGUGA [Fam2.1 aminoacylation ribozyme variant]
group C

# bin label for AUUCACGUAGGUCAUCGGGCG [Fam2.2 aminoacylation ribozyme variant]
group B

# bin label for AUUACCCUGGUCAUCGAGGAA [Fam2.1 aminoacylation ribozyme variant]
group B
